# Measurement Protocol: Tmax in Sprague-Dawley rat at 5 mg/kg, po by LC-MS/MS analysis
# Format: ADME, organism-based
# Set-up: dose 5 mg/kg, route oral
# Test Settings: in vivo
Endpoint: Tmax (h)
Report the figure in h without appending any unit label.

Tmax reading for C[C@H](NC(=O)N1CCc2cccnc2[C@H]1c1ccc(C(F)(F)F)c(F)c1)C(F)(F)F : 5.3

----------
# Measurement Protocol: Plasma concentration in unilateral cartoid artery cannulated Sprague-Dawley rat model at 3 mg/kg, po after […]
# Assay type: ADME, organism-based
# Set-up: dose 3 mg/kg, route oral
Endpoint: concentration at […]
I'd appreciate it if you included the unit after the number.

concentration at […] in this record for C[C@H](NC(=O)N1CCc2cccnc2[C@H]1c1ccc(C(F)(F)F)c(F)c1)C(F)(F)F : 1270 nM
